- experiment: qHTS of pediatric cancer cell lines to identify multiple opportunities for drug repurposing: Primary screen for SK-N-MC cells (AID 1347093)
- stated-conditions: SK-N-MC viability, CellTiter-Glo luminescence, 48 h; series mostly up to 46 µM
Records with an inconclusive call do not appear. Active and inactive are the calls of the source. Calls follow the shape of the dose curve; as a rule, active = well fitted cell-killing curve with a large enough effect; inconclusive = small, poorly fitted or top-dose-only effect; inactive = no such curve, though single readings can be large or run the other way.
Select the matching outcome among active, inactive

Could you please tell me the result logged for `O=C(Oc1cccc2cccnc12)c1ccccc1` in this assay? active

Could you please tell me the result logged for `COc1cc(C)nc(-n2nc(C)cc2OC)n1` in this assay? inactive

Could you please tell me the result logged for `CCN1CCN(C(=O)N[C@@H](C(=O)N[C@@H]2C(=O)N3C(C(=O)O)=C(CSc4nnnn4C)CS[C@H]23)c2ccc(O)cc2)C(=O)C1=O` in this assay? inactive

Could you please tell me the result logged for `Cc1ncc(CO)c(C=O)c1O` in this assay? inactive

Could you please tell me the result logged for CC(O)Cn1cnc2c1c(=O)n(C)c(=O)n2C (configuration not stated) in this assay? inactive

Could you please tell me the result logged for CC(C)(Cc1c[nH]c2ccccc12)NCC(O)COc1ccccc1C#N (configuration not stated) in this assay? inactive

Could you please tell me the result logged for CC(CNC1CCCCC1)OC(=O)c1ccccc1 (configuration not stated) in this assay? inactive

Could you please tell me the result logged for CCc1ccc(C(=O)C(C)CN2CCCCC2)cc1 (configuration not stated) in this assay? inactive

Could you please tell me the result logged for `CCNC(=O)NCc1cccc(Cl)c1` in this assay? inactive

Could you please tell me the result logged for `CC(=O)Oc1ccc(C)cc1` in this assay? inactive

Could you please tell me the result logged for `CCOc1ccccc1C(N)=O` in this assay? inactive

Could you please tell me the result logged for `N#CCC(=O)NN` in this assay? inactive

----------
- Tested on: DIV17
- experiment: qHTS profiling for inhibitors of Plasmodium falciparum proliferation (AID 504749); also: nearly all actives have a fitted effect of over 60% in size
- stated-conditions: P. falciparum in erythrocytes, SYBR Green DNA, 72 h; series mostly up to 28.7 µM
Records with an inconclusive call do not appear. Active and inactive are the calls of the source. Calls follow the shape of the dose curve; as a rule, active = well fitted inhibition curve with a large enough effect; inconclusive = small, poorly fitted or top-dose-only effect; inactive = flat fitted curve, though single readings scatter.
Select the matching outcome among YES = active, NO = inactive

Could you please tell me the result logged for CC(=O)Nc1ccc(OCC(O)CNC(C)C)cc1 (stereo not given) in this assay? NO

Could you please tell me the result logged for `CCOC(=O)[C@H](CCc1ccccc1)N[C@@H](C)C(=O)N1[C@H](C(=O)O)C[C@H]2CCCC[C@@H]21` in this assay? NO

Could you please tell me the result logged for `CCCc1ncc(C[n+]2ccccc2C)c(N)n1` in this assay? NO

Could you please tell me the result logged for `COc1cc(C(=O)N2CCCCCCC2)cc(OC)c1OC` in this assay? NO

Could you please tell me the result logged for `OCc1ccccn1` in this assay? NO

Could you please tell me the result logged for O=C1C(CCS(=O)c2ccccc2)C(=O)N(c2ccccc2)N1c1ccccc1 (stereo not given) in this assay? NO

Could you please tell me the result logged for `CCOC(=O)c1ccc(N)cc1` in this assay? NO

Could you please tell me the result logged for `CCN(CC)CCNC(=O)c1cc(Br)c(N)cc1OC` in this assay? NO

Could you please tell me the result logged for `CCCCNc1ccc(C(=O)OCCOCCOCCOCCOCCOCCOCCOCCOCCOC)cc1` in this assay? NO

Could you please tell me the result logged for `NCCNC(=O)c1ccc(Cl)cn1` in this assay? NO

Could you please tell me the result logged for CCC1Nc2cc(Cl)c(S(N)(=O)=O)cc2S(=O)(=O)N1 (stereo not given) in this assay? NO

Could you please tell me the result logged for `NS(=O)(=O)Cc1noc2ccccc12` in this assay? NO

Could you please tell me the result logged for `COc1ccc(CN(CCN(C)C)c2ncccn2)cc1` in this assay? NO

Could you please tell me the result logged for `CC(=O)OC[C@H]1O[C@@H](n2ncc(=O)[nH]c2=O)[C@H](OC(C)=O)[C@@H]1OC(C)=O` in this assay? NO

Could you please tell me the result logged for `COc1ccccc1N1CCN(CCCCNC(=O)c2ccc(-c3ccc(C(C)=O)cc3)cc2)CC1` in this assay? NO

Could you please tell me the result logged for `Cn1c(=O)c2[nH]c(Br)nc2n(C)c1=O` in this assay? NO

Could you please tell me the result logged for `CCOCCn1c(N2CCCN(C)CC2)nc2ccccc21` in this assay? YES

Could you please tell me the result logged for `CCOC(=O)c1c(N)sc2c1CCN(Cc1ccccc1)C2` in this assay? YES

Could you please tell me the result logged for `O=C1C(O)=C(O)C(=O)C(O)=C1O` in this assay? NO

Could you please tell me the result logged for `Cc1cccc(C)c1NC(=O)CN1CCCC1` in this assay? NO

Could you please tell me the result logged for `O=C(Nc1ccc([N+](=O)[O-])cc1)Nc1ccc([N+](=O)[O-])cc1` in this assay? NO

Could you please tell me the result logged for `CCN(CC)CCOc1ccc2c(c1)C(=O)c1cc(OCCN(CC)CC)ccc1-2` in this assay? YES

Could you please tell me the result logged for Cc1ccccc1OCC(O)CO (stereo not given) in this assay? NO

Could you please tell me the result logged for `CCCCNC(=O)NS(=O)(=O)c1ccc(N)cc1` in this assay? NO

Could you please tell me the result logged for `O=C(O)Cc1csc(-c2ccc(Cl)cc2)n1` in this assay? NO
